Reference source: the supplement of paper PMC10567573

variants and their reported protein stability index
B1: C8orf76 (parent)
chain: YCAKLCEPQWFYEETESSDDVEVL

- Variants of: B1
- METHOD_NOTES: protein stability index of a GFP-peptide fusion (GPS, HEK-293T) (PSI 1-6); higher = more stable;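 note: lentivirally expressed fusions sorted by FACS into six bins by GFP to DsRed ratio, PSI derived from sequencing read proportions per bin multiplied by bin number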
- CONDITION_SUMMARY: c terminus: a fixed tail appended

VARIANT_KEY | protein stability index
E14Q | 1.72
L24Q | 1.86
T15Q | 2.43
E22S | 2.31
T15N | 2.08
E7I | 2.32
C6K | 2.93
S17W | 2.74
A3L | 2.78
E22D | 1.98
Y1A | 4.42
